# System: DLD1
# ASSAY NOTES: TCF/Wnt firefly luciferase reporter signal relative to plate median (fraction of plate median); higher = higher Wnt reporter signal
# COND: 10 µM; treatment time 24 h; reporter: 7TFP
Mark met for reported TCF/Wnt firefly luciferase reporter signal of 1 or greater; mark not met for anything smaller.

{"COMPOUND": "CC(C)NC[C@@H](C(=O)N1CCN(c2ncnc3c2[C@H](C)C[C@H]3O)CC1)c1ccc(Cl)cc1", "CLASS": "not met"}
{"COMPOUND": "COc1cc2nccc(Oc3ccc(NC(=O)C4(C(=O)Nc5ccc(F)cc5)CC4)cc3)c2cc1OC [XL-184 free base (Cabozantinib)]", "CLASS": "met"}
{"COMPOUND": "CNC(=O)c1nn(C)c2c1C(C)(C)Cc1cnc(Nc3ccc(N4CCN(C)CC4)cc3)nc1-2", "CLASS": "not met"}
{"COMPOUND": "CC(C)(C)c1cnc(CSc2cnc(NC(=O)C3CCNCC3)s2)o1", "CLASS": "not met"}
{"COMPOUND": "Cc1cc(Nc2nc(N[C@@H](C)c3ccc(F)cc3)c(C#N)cc2F)n[nH]1", "CLASS": "met"}
{"COMPOUND": "O=C(Cc1ccc(-c2ccc(OCCN3CCOCC3)cc2)cn1)NCc1ccccc1", "CLASS": "not met"}
{"COMPOUND": "Cc1ccc(C(=O)Nc2cccc(C(F)(F)F)c2)cc1Nc1nc(-c2cccnc2)nc2c1cnn2C", "CLASS": "met"}

* * *

# Test system: HCT116
# ASSAY NOTES: TCF/Wnt firefly luciferase reporter signal relative to plate median (fraction of plate median); higher = higher Wnt reporter signal
# COND: 10 µM; treatment time 24 h; reporter: TCF4/Wnt
MEASUREMENT NAME: TCF/Wnt firefly luciferase reporter signal

{"MOLECULE": "CN1CCN(C2CCN(C(=O)Nc3cc(Oc4ccc(NC(=O)C5(C(=O)Nc6ccc(F)cc6)CC5)c(F)c4)ccn3)CC2)CC1 [Golvatinib (E7050)]", "EXPERIMENTAL RESULT": 0.915}
{"MOLECULE": "CC(C)(C)Cn1c(N)nc2ccc(-c3[nH]c(C(C)(C)C)nc3-c3ccc(F)cc3)nc21", "EXPERIMENTAL RESULT": 1.45}
{"MOLECULE": "COc1cc(Nc2ncc(F)c(Nc3ccc4c(n3)N(COP(=O)(O)O)C(=O)C(C)(C)O4)n2)cc(OC)c1OC", "EXPERIMENTAL RESULT": 2.88}
{"MOLECULE": "CC[C@H](CO)Nc1nc(NCc2ccccc2)c2ncn(C(C)C)c2n1 [Roscovitine (Seliciclib, CYC202)]", "EXPERIMENTAL RESULT": 1.34}
{"MOLECULE": "N#CCNC(=O)c1ccc(-c2ccnc(Nc3ccc(N4CCOCC4)cc3)n2)cc1", "EXPERIMENTAL RESULT": 1.31}
{"MOLECULE": "CC(=O)Nc1nc(C)c(-c2ccc(Cl)c(S(=O)(=O)NCCO)c2)s1", "EXPERIMENTAL RESULT": 1.09}
{"MOLECULE": "COc1ccc(-c2cc3c(C)nc(N)nc3n([C@H]3CC[C@H](OCCO)CC3)c2=O)cn1", "EXPERIMENTAL RESULT": 0.591}
{"MOLECULE": "CC(C)(C)c1cc(/C=C(\\C#N)C(N)=S)cc(C(C)(C)C)c1O", "EXPERIMENTAL RESULT": 0.791}
{"MOLECULE": "C=CC(=O)Nc1cccc(Sc2nc(Nc3ccc(N4CCN(C)CC4)cc3)ncc2Cl)c1", "EXPERIMENTAL RESULT": 1.64}
{"MOLECULE": "COc1cc(OC)c(/C=C/S(=O)(=O)Cc2ccc(OC)c(NCC(=O)O)c2)c(OC)c1", "EXPERIMENTAL RESULT": 0.198}
{"MOLECULE": "O=C(NOCC1CC1)c1ccc(F)c(F)c1Nc1ccc(I)cc1Cl", "EXPERIMENTAL RESULT": 0.995}
{"MOLECULE": "O=C1NC(=O)/C(=C\\c2ccc3nccnc3c2)S1", "EXPERIMENTAL RESULT": 1.96}
{"MOLECULE": "Cn1cnc2c(F)c(Nc3ccc(Br)cc3Cl)c(C(=O)NOCCO)cc21 [AZD6244 (Selumetinib)]", "EXPERIMENTAL RESULT": 0.99}
{"MOLECULE": "CN(C)c1ccc(-c2nc3ncc(Cl)c(N4CCN(CC(=O)Nc5nccs5)CC4)c3[nH]2)cc1", "EXPERIMENTAL RESULT": 1.26}
{"MOLECULE": "COc1ccc(-c2ccc3c(N4CCOC[C@@H]4C)nc(N4CCOC[C@@H]4C)nc3n2)cc1CO", "EXPERIMENTAL RESULT": 0.567}
{"MOLECULE": "N#C/C(=C\\c1ccc(O)c(O)c1)C(=O)NCc1ccccc1", "EXPERIMENTAL RESULT": 1.1}
{"MOLECULE": "CC[C@@H]1C(=O)N(C)c2cnc(Nc3ccc(C(=O)NC4CCN(C)CC4)cc3OC)nc2N1C1CCCC1", "EXPERIMENTAL RESULT": 0.983}
{"MOLECULE": "O=C(NCc1ccccc1)c1csc(Nc2ccncn2)n1", "EXPERIMENTAL RESULT": 1.78}
